Can you tell me IC50 (IL4, ng/mL), PBMC, inhibition of IL4-promoted proliferation for the items I'm about to list?
Biological target: T1, receptors of IL4/IL13 on TF-1 cells and PBMC (IL4 receptor) (human, UniProt P24394 26-825)
T1 sequence (looked up): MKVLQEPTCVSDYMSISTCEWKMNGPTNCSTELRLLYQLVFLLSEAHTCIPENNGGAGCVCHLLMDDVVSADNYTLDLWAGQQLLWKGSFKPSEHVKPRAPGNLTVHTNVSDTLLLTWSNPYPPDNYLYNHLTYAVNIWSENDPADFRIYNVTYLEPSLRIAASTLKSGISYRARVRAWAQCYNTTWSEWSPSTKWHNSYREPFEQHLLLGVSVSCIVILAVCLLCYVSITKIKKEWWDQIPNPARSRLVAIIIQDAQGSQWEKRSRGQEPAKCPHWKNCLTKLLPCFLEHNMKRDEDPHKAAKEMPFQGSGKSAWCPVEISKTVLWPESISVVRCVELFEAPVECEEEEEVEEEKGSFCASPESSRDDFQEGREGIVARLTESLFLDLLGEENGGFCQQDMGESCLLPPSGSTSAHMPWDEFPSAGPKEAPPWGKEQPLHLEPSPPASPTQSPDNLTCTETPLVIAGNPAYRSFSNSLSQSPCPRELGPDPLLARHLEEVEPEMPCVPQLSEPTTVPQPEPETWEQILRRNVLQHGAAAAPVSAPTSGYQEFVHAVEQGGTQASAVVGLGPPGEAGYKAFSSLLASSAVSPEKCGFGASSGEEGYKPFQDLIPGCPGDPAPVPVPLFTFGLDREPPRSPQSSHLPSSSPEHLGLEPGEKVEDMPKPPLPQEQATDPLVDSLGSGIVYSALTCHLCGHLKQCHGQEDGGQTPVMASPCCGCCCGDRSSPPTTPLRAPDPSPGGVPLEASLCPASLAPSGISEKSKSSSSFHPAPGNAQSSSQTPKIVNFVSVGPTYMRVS
Assay: cell-based or functional assay
Provide the reading as a plain figure in ng/mL.

Requested field: IC50 (IL4, ng/mL), PBMC, inhibition of IL4-promoted proliferation. Item: IL4R-BA173-IgG4 (antibody, V domains shown, also called IL4RQ6-BA173) VH: QVQLVESGGGVVQPGRSLRLSCAASGFTFSSYAMHWVRQAPGKGLEWVAVISYDGSNKYYADSVKGRFTISRDNSKNTLYLQMNSLRAEDTAVYYCARGLTTVRGVLYWGQGTLVTVSS VL: DIVMTQSPSTLSASVGDRVTITCRASQSISTRLAWYQQKPGKAPKLLVYWASSLESGVPSRFSGSGSGTEFTLAISSLQPDDFGTYYCQQYTSYSWTFGQGTKLEIKR
1.02

Requested field: IC50 (IL4, ng/mL), PBMC, inhibition of IL4-promoted proliferation. Item: IL4R-BA167-IgG4 (antibody, V domains shown, also called IL4RQ6-BA167) VH: QVQLVESGGGVVQPGRSLRLSCAASGFTFSSYAMHWVRQAPGKGLEWVAVISYDGSNKYYADSVKGRFTISRDNSKNTLYLQMNSLRAEDTAVYYCARGLTTVRGVLYWGQGTLVTVSS VL: EIVMTQSPSSLSASLGDRVTITCRASQNIGSRLAWYQQKPGKAPKLLIYKASSLESGVPSRFSGSGSGTEFTLTISSLQPDDFATYYCQQYNSYSWTFGQGTKLEIKR
1.52

Requested field: IC50 (IL4, ng/mL), PBMC, inhibition of IL4-promoted proliferation. Item: IL4R-BA030-IgG4 (antibody, V domains shown, also called IL4RQ14-BA030) VH: QVQLVESGGGVVQPGRSLRLSCAASGFTFSSYAIHWVRQAPGKGLEWVAVISYDGSKKYYADSVKGRFTISRDNSKNTLYLQMNSLRAEDTAVYYCAREYYYGMDVWGQGTTVTVSS VL: DIVMTQSPSTLSASVGDRVTITCRASQSISNWLAWYQQKPGKAPKRLIYKASSLESGVPSRFSGSGSGTEFTLTISSLQPDDFATYYCQQYNRYFTFGQGTKLEIKR
8.09

Requested field: IC50 (IL4, ng/mL), PBMC, inhibition of IL4-promoted proliferation. Item: Dupilumab (antibody, human IgG4 S228P, kappa, V domains shown) VH: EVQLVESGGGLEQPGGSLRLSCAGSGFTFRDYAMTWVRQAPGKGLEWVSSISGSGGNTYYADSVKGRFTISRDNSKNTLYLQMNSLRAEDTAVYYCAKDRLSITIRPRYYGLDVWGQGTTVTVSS VL: DIVMTQSPLSLPVTPGEPASISCRSSQSLLYSIGYNYLDWYLQKSGQSPQLLIYLGSNRASGVPDRFSGSGSGTDFTLKISRVEAEDVGFYYCMQALQTPYTFGQGTKLEIKR
2.87
